measured-on: recombinant NMDARs composed of NR1 and NR2D subunits (Homo sapiens, UniProt O15399+Q05586)
Construct: expressed in transfected cells; host or cells: HEK293, transiently transfected
Sequence (O15399 28-1336, other chains not shown): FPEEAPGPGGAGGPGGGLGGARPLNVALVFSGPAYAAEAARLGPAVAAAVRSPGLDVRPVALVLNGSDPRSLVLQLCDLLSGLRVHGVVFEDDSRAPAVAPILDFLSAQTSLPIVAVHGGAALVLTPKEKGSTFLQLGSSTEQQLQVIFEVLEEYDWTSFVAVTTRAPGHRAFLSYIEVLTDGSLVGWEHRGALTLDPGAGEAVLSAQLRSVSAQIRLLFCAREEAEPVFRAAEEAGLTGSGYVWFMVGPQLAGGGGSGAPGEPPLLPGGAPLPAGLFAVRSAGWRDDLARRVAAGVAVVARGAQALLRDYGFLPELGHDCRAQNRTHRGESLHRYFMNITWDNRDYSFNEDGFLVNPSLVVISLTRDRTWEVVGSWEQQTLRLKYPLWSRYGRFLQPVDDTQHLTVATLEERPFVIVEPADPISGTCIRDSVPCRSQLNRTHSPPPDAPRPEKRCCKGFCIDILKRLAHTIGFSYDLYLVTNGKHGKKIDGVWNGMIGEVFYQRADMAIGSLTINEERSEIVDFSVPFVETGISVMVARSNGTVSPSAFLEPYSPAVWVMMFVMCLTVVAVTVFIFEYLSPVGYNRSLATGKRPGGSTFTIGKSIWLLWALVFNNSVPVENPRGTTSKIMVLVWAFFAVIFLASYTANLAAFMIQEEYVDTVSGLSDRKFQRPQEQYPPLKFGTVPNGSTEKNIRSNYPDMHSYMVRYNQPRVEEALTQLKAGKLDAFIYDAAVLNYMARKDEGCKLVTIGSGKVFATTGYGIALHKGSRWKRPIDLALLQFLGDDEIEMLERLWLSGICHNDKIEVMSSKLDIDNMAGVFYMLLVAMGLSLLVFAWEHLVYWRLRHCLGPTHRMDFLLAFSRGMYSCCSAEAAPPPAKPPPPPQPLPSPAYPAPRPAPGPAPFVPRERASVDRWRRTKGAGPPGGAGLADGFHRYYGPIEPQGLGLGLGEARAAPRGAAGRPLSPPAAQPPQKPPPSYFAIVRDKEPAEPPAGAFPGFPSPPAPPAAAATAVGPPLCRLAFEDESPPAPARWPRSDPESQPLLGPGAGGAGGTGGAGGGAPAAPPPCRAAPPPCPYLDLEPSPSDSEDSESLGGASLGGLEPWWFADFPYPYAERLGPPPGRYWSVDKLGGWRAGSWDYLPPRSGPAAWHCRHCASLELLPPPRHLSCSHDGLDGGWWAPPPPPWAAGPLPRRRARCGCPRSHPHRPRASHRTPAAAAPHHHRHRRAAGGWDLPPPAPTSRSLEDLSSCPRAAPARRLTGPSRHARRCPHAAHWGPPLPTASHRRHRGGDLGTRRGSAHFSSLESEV
method-summary: NMDA-induced current in transiently transfected HEK293 cells expressing recombinant NR1/NR2D NMDARs
Format: cell-based
conditions-used: 100 nM; co-application of NMDA and glycine, absence of Mg2+
# Lookup of reported block of the NMDA-induced current, NR1/NR2D keyed by entry
A number alone suffices; assume %.

Worked examples follow.
{"compound": "C[C@H]1COC2=C1C(=O)C(=O)c1c2ccc2c1CCCC2(C)C", "measure-unit": "%", "measured-result": 10}
{"compound": "Cc1coc2c1C(=O)C(=O)c1c-2ccc2c(C)cccc12", "measure-unit": "%", "measured-result": 4}
{"compound": "Cc1coc2c1C(=O)C(=O)c1c-2ccc2c1CCCC2(C)CO (centres unmarked)", "measure-unit": "%", "measured-result": 52}

(Q) Return block of the NMDA-induced current, NR1/NR2D (reported value) for this compound: CC(C)C1=Cc2ccc3c(c2C(=O)C1=O)CCCC3(C)C
(A) 11

(Q) Return block of the NMDA-induced current, NR1/NR2D (reported value) for this compound: Cc1coc2c1C(=O)C(=O)c1c-2ccc2c1CCCC2(C)C
(A) 61
